# Read-out: Tumor necrosis factor receptor superfamily member 6 (Homo sapiens) (UniProt P25445)
# procedure-summary: LTEA_HepaRG_FAS: Life Technologies and Expression Analysis (LTEA) Assay for Fas cell surface death receptor (FAS) using HepaRG (AID 2283447)
# run-conditions: mRNA level, 48 h; actives raise or lower the signal
Calls of active or inactive are those of the source. How the source made its calls: active means hit-call score of the fitted dose curve at least 0.9, where 1 is the maximum; inactive means score below 0.9.
Return exactly one item of active, inactive

molecule	answer-label
CCCCOC(=O)CCCCC(=O)OCCCC	inactive
CCN(CC)CCOc1ccc(C(=C(Cl)c2ccccc2)c2ccccc2)cc1	inactive
Cn1cnc2c1c(=O)[nH]c(=O)n2C	inactive
O=C(NS(=O)(=O)/C=C/c1cccs1)c1ccc(F)cc1Br	inactive

What did this assay record as the result for OCC(CO)n1cnc(-c2ccc(F)cc2)c1-c1ccnc(Oc2ccccc2)n1 ? inactive

Item: O=C1NC(=O)C(c2ccccc2)(c2ccccc2)N1 inactive

Item: CC(=O)OCC(COC(C)=O)OC(C)=O inactive

Item: CCc1cc(C2=C(C(=O)O)N(c3ccccc3C(F)(F)F)S(=O)(=O)c3ccccc32)cc2c1OCO2 active

Item: CC1(C)C(=O)NC(=O)N1CO inactive

Item: CCCCCCCCCCCCCCCCO inactive

Item: CCCCCCCCCCCCCCOS(=O)(=O)O inactive

Item: O=C(O)c1cccnc1 inactive

Item: CCCCC(CC)COP(=O)(OCC(CC)CCCC)OCC(CC)CCCC (stereo unspecified) inactive

Item: CO[C@@H]1COCC[C@@H]1N[C@@H]1CC[C@@](C(=O)N2CCc3ncc(C(F)(F)F)cc3C2)(C(C)C)C1 inactive

Item: Cc1ccc(-c2cc(C(F)(F)F)nn2-c2ccc(S(N)(=O)=O)cc2)cc1 active

Item: COC(=O)CCC(=O)OC inactive

====

# tested-system: Retinoic acid receptor RXR-alpha (Homo sapiens) (UniProt P19793)
# Sequence (P19793 whole entry, looked up): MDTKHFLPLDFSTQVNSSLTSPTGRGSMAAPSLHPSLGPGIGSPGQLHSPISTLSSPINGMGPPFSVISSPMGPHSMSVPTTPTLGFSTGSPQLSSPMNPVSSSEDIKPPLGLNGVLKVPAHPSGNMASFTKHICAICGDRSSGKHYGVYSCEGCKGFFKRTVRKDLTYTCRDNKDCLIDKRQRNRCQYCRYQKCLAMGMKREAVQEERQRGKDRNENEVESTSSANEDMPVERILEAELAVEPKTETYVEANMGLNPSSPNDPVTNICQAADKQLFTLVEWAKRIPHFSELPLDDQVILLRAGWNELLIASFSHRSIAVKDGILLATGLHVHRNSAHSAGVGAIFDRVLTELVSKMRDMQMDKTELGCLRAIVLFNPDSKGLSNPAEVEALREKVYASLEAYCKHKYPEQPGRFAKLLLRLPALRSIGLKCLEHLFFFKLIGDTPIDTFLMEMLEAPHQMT
# procedure-summary: OT_NURR1_NURR1RXRa_0480: Odyssey Thera (OT) 8-hour HEK293T Protein Complementation Assay for Nurr1/retinoid X receptor (RXR) (AID 2283385)
Inconclusive results are not listed. Active and inactive are the calls of the source. The calls were made as follows: active = hit-call score of the fitted dose curve at least 0.9, where 1 is the maximum; inconclusive = response in the unintended direction; inactive = score below 0.9.
readout-type: AC50

compound	endpoint-value
Nc1nc(=S)c2[nH]cnc2[nH]1	inactive
O=C(O)CN(CC(=O)O)CC(=O)O	inactive
O=C(O)c1[nH]n(-c2ccc(S(=O)(=O)O)cc2)c(=O)c1N=Nc1ccc(S(=O)(=O)O)cc1	inactive
CC(COCC(C)OC(=O)c1ccccc1)OC(=O)c1ccccc1 (centres undefined)	inactive

Sample CCC(C)N(C)C(=O)c1cc2ccccc2c(-c2ccccc2Cl)n1 (centres undefined) — what was its AC50? inactive

Item: COC(=O)CCC(=O)OC inactive

Item: O=C1OC(c2ccc(O)cc2)(c2ccc(O)cc2)c2ccccc21 inactive

Item: CCCCCCC(C=O)=Cc1ccccc1 73.4 µM (active)

Item: OCC(CO)n1cnc(-c2ccc(F)cc2)c1-c1ccnc(Oc2ccccc2)n1 inactive

Item: CC(C)c1cccc(C(C)C)c1 inactive

Item: CC1(C)C(=O)NC(=O)N1CO inactive

Item: CCN(CC)CCOc1ccc(C(=C(Cl)c2ccccc2)c2ccccc2)cc1 9.55 µM (active)

Item: CCCCC(CC)COP(=O)(OCC(CC)CCCC)OCC(CC)CCCC (centres undefined) inactive

Item: COc1ccc(C(=O)Nc2nc3ccccc3c(NCc3ccccc3)c2C#N)cc1 9.26 µM (active)

Every entry's value here was drawn from PubChem BioAssay (EPA / NIEHS).
